- Tgt: UniProt:P78527
- Experiment Summary: Evaluation of inhibitory activity against DNA-PK (HTRF kinase assay, GST-cMyc-p53 substrate)
- Assay type: biochemical
- Condition Context: compound concentration 0.1 μM; read-out: EXP_VALUE(% Inhibition) DNA-PK(h) 0.1 μM
Grouping rule (inhibition at 0.1 µM): bucket A = under 60%, bucket B = from 60% up to 90%, bucket C = 90% and over

Worked set:
- Compound: "C[C@H](Nc1ncnc2[nH]ccc(=O)c12)c1c(Cl)c2cccc(Sc3ccc(Cl)cc3)c2c(=O)n1-c1ccccc1"
  Class Assignment: "bucket A"
- Compound: "C[C@H](Nc1ncnc2[nH]ccc(=O)c12)c1c(Cl)c2cccc(-c3ccncc3)c2c(=O)n1-c1ccccc1"
  Class Assignment: "bucket C"
- Compound: "C[C@H](Nc1ncnc2[nH]ccc(=O)c12)c1c(Cl)c2cccc(-c3ccc4nccnc4c3)c2c(=O)n1-c1ccccc1"
  Class Assignment: "bucket C"
- Compound: "C[C@H](Nc1ncnc2[nH]ccc(=O)c12)c1c(Cl)c2cccc(-c3ccc(Cl)c(Cl)c3)c2c(=O)n1-c1ccccc1"
  Class Assignment: "bucket A"
- Compound: "C[C@H](Nc1ncnc2[nH]ccc(=O)c12)c1c(Br)c2cccc(-c3ccc(N(C)C)cc3)c2c(=O)n1-c1ccccc1"
  Class Assignment: "bucket A"

Asked: Which category does the recorded inhibition at 0.1 µM put `C[C@H](Nc1ncnc2[nH]ccc(=O)c12)c1c(Cl)c2cccc(NCCc3ccc(Cl)cc3)c2c(=O)n1-c1ccccc1` in?
Given back: bucket A

Asked: Hi, small favor: classify `C[C@H](Nc1ncnc2[nH]ccc(=O)c12)c1c(Cl)c2cccc(N3CCN(C)CC3)c2c(=O)n1-c1ccccc1` by its inhibition at 0.1 µM when you get a moment.
Given back: bucket A

Asked: Could you place `Cc1ccc(-c2cccc3cc([C@H](C)Nc4ncnc5[nH]ccc(=O)c45)n(-c4ccccc4)c(=O)c23)cn1` in its proper category? Many thanks.
Given back: bucket A

Asked: Category of `Cc1ccc(-c2cccc3c(Br)c([C@H](C)Nc4ncnc5[nH]ccc(=O)c45)n(-c4ccccc4)c(=O)c23)cn1` :
Given back: bucket C

Asked: Class (by measured inhibition at 0.1 µM) for `C[C@H](Nc1ncnc2[nH]ccc(=O)c12)c1c(Cl)c2cccc(N3CCc4ccccc43)c2c(=O)n1-c1ccccc1`
Given back: bucket A

Asked: Where would `C[C@H](Nc1ncnc2[nH]ccc(=O)c12)c1c(Cl)c2cccc(-c3cccc(CC#N)c3)c2c(=O)n1-c1ccccc1` land among the classes by reported inhibition at 0.1 µM?
Given back: bucket C

Asked: Please report the category associated with `Cc1nc2ccc(-c3cccc4c(Cl)c([C@H](C)Nc5ncnc6[nH]ccc(=O)c56)n(-c5ccccc5)c(=O)c34)cc2o1` , nothing else.
Given back: bucket C

Asked: Class for `C[C@H](Nc1ncnc2[nH]ccc(=O)c12)c1c(Cl)c2cccc(-c3ccc4ncccc4c3)c2c(=O)n1-c1ccccc1` ?
Given back: bucket C

Asked: Bin? `C[C@H](Nc1ncnc2[nH]ccc(=O)c12)c1c(Cl)c2cccc(C#Cc3ccncc3)c2c(=O)n1-c1ccccc1`
Given back: bucket C

Asked: Hey, which category is `CCCSc1cccc2c(Cl)c([C@H](C)Nc3ncnc4[nH]ccc(=O)c34)n(-c3ccccc3)c(=O)c12` in, do you know?
Given back: bucket B

Asked: Consider `Cc1ccc(-c2cccc3c(Cl)c([C@H](C)Nc4ncnc5[nH]ccc(=O)c45)n(-c4ccccc4)c(=O)c23)cn1` . To which inhibition at 0.1 µM class does it belong?
Given back: bucket C

Asked: // bin(item) where item = `C[C@H](Nc1ncnc2[nH]ccc(=O)c12)c1cc2cccc(-c3ccc(C(N)=O)cc3)c2c(=O)n1-c1ccccc1`
Given back: bucket B
